# Tested on: Escherichia coli IAI1
# ASSAY SUMMARY: growth (OD595) fold change vs plate DMSO controls (fold change (ratio)); higher = more growth
# SETUP CONDITIONS: incubation time: 27 h, anaerobic, 37 °C
Counter-ions that a name gives are not always drawn.
Entries annotated with measured growth

COMPOUND: CC(=O)OCC(=O)[C@@]1(O)[C@H](C)C[C@H]2[C@@H]3CCC4=CC(=O)C=C[C@]4(C)[C@@]3(F)[C@@H](O)C[C@@]21C [Dexamethasone acetate] (20 µM)
growth: 1.01
//
COMPOUND: CC[C@]12CCCN3CCc4c(n(c5ccccc45)[C@@](O)(C(=O)OC)C1)[C@@H]32 [Vincamine] (20 µM)
growth: 1.01
//
COMPOUND: OC(CCN1CCCC1)(c1ccccc1)C1CCCCC1 (centres undefined) [Procyclidine hydrochloride] (20 µM)
growth: 1.05
//
COMPOUND: O=C(Cn1c(=O)sc2ccc(Cl)cc21)N1CCN(CCO)CC1 [Tiaramide Hydrochloride] (20 µM)
growth: 1
//
COMPOUND: CC(=O)OCC(=O)NCCCOc1cccc(CN2CCCCC2)c1 [Roxatidine acetate hydrochloride] (20 µM)
growth: 1.06
//
COMPOUND: CCCCCCCCCCCCCCCCCCCCCC(=O)Nc1ccn([C@@H]2O[C@H](CO)[C@@H](O)[C@@H]2O)c(=O)n1 [Enocitabine] (20 µM)
growth: 0.973
//
COMPOUND: C/C(=C(\CCOC(=O)c1ccccc1)SS/C(CCOC(=O)c1ccccc1)=C(/C)N(C=O)Cc1cnc(C)nc1N)N(C=O)Cc1cnc(C)nc1N [Bisbentiamine] (20 µM)
growth: 0.985
//
COMPOUND: CCCCc1oc2ccc(NS(C)(=O)=O)cc2c1C(=O)c1ccc(OCCCN(CCCC)CCCC)cc1 [Dronedarone hydrochloride] (20 µM)
growth: 1.09
//
COMPOUND: COc1ccc2cc(CCC(C)=O)ccc2c1 [Nabumetone] (20 µM)
growth: 0.792
//
COMPOUND: CC(=O)Oc1cc2c(s1)CCN(C(C(=O)C1CC1)c1ccccc1F)C2 (centres undefined) [Prasugrel] (20 µM)
growth: 1.02
//
COMPOUND: CCC(C)(C)C(=O)O[C@H]1C[C@@H](C)C=C2C=C[C@H](C)[C@H](CC[C@@H]3C[C@@H](O)CC(=O)O3)[C@H]21 [Simvastatin] (20 µM)
growth: 1.05
//
COMPOUND: CN1CCN(c2c(F)cc3c(=O)c(C(=O)O)cn4c3c2OCN4C)CC1 [Marbofloxacin] (20 µM)
growth: 0.0185
//
COMPOUND: CCC(C)(C)c1ccc(CC(C)CN2C[C@@H](C)O[C@@H](C)C2)cc1 (some centres undefined) [Amorolfine hydrochloride] (20 µM)
growth: 0.995
//
COMPOUND: COc1ccc2c(c1)c(CC(=O)OC/C=C(\C)CC/C=C(\C)CCC=C(C)C)c(C)n2C(=O)c1ccc(Cl)cc1 [Indometacin farnesil] (20 µM)
growth: 1.04
//
COMPOUND: CC(Oc1ccccc1)C(=O)N[C@@H]1C(=O)N2[C@@H]1SC(C)(C)[C@@H]2C(=O)O (some centres undefined) [Phenethicillin potassium salt] (20 µM)
growth: 1.05
//
COMPOUND: Nc1ccc(S(=O)(=O)Nc2ncccn2)cc1 [Sulfadiazine] (20 µM)
growth: 0.939
//
COMPOUND: C[N+]1(C)CCC(OC(=O)C(O)(c2ccccc2)C2CCCC2)C1 (centres undefined) [Glycopyrrolate bromide] (20 µM)
growth: 1.03
//
COMPOUND: O=C(O)Cc1ccccc1Nc1c(Cl)cccc1Cl [Diclofenac sodium] (20 µM)
growth: 0.984
//
COMPOUND: Cc1onc(-c2ccccc2)c1-c1ccc(S(N)(=O)=O)cc1 [Valdecoxib] (20 µM)
growth: 0.98
//
COMPOUND: C[C@H](CCC(=O)O)[C@H]1CC[C@H]2[C@@H]3[C@@H](O)C[C@@H]4C[C@H](O)CC[C@]4(C)[C@H]3CC[C@]12C [Urosiol] (20 µM)
growth: 1.05
//
COMPOUND: Nc1ncn(C2OC(CO)C(O)C2O)c(=O)n1 (centres undefined) [Azacytidine-5] (20 µM)
growth: 0.811
//
COMPOUND: CCOc1ccc(NC(N)=O)cc1 [(4-Ethoxyphenyl)urea] (50 µM)
growth: 0.949
//
COMPOUND: CCOC(N)=O [Urethane] (20 µM)
growth: 1.05
//
COMPOUND: C=C1c2c(Cl)ccc(O)c2C(O)=C2C(=O)[C@]3(O)C(O)=C(C(N)=O)C(=O)[C@@H](N(C)C)[C@@H]3[C@@H](O)[C@H]12.O=C(O)c1cc(S(=O)(=O)O)ccc1O [Meclocycline sulfosalicylate] (20 µM)
growth: 0.000715
//
COMPOUND: C[C@]12C[C@H](O)[C@H]3[C@@H](CCC4=CC(=O)CC[C@@]43C)[C@@H]1CC[C@@H]2C(=O)CO [Corticosterone] (20 µM)
growth: 1.05
//
COMPOUND: Cc1c(NC(=O)c2cccnc2)c(=O)n(-c2ccccc2)n1C [Nifenazone] (20 µM)
growth: 0.988
//
COMPOUND: COc1ccc2[nH]cc(CCNC(C)=O)c2c1 [Melatonin] (20 µM)
growth: 0.932
//
COMPOUND: Cc1c(N(C)C)c(=O)n(-c2ccccc2)n1C [Amidopyrine] (20 µM)
growth: 1.02
//
COMPOUND: COc1ccc(CNc2nc(N3CCC[C@H]3CO)ncc2C(=O)NCc2ncccn2)cc1Cl [Avanafil] (20 µM)
growth: 0.981

====

# System: Klebsiella aerogenes DSM 30053
# ASSAY SUMMARY: growth (OD595) fold change vs plate DMSO controls (fold change (ratio)); higher = more growth
# SETUP CONDITIONS: incubation time: 27 h, anaerobic, 37 °C
Counter-ions that a name gives are not always drawn.

COMPOUND: CCN(CC)CCNc1ccc(CO)c2sc3ccccc3c(=O)c12 [Hycanthone] (20 µM)
growth: 1.03

COMPOUND: CC[C@H]1OC(=O)[C@H](C)[C@@H](O[C@H]2C[C@@](C)(OC)[C@@H](O)[C@H](C)O2)[C@H](C)[C@@H](O[C@@H]2O[C@H](C)C[C@H](N(C)C)[C@H]2O)[C@](C)(O)C[C@@H](C)C(=O)[C@H](C)[C@@H](O)[C@]1(C)O [Erythromycin] (20 µM)
growth: 1.16

COMPOUND: O=S(=O)(O)c1cc(O)ccc1O [Ethamsylate diethylammonium salt] (20 µM)
growth: 0.98

COMPOUND: CCCC(=O)Nc1ccc(OCC(O)CNC(C)C)c(C(C)=O)c1 (stereo unspecified) [Acebutolol hydrochloride] (20 µM)
growth: 0.971

COMPOUND: O=C1[C@H]2CCCC[C@H]2C(=O)N1CCCCN1CCN(c2nsc3ccccc23)CC1 [Perospirone hydrochloride] (20 µM)
growth: 1.01

COMPOUND: CC(C)(c1ccc(O)cc1)c1ccc(O)cc1 [Bisphenol A] (20 µM)
growth: 1

COMPOUND: O=C(CCCCC(=O)Nc1c(I)cc(I)c(C(=O)O)c1I)Nc1c(I)cc(I)c(C(=O)O)c1I [Iodipamide] (20 µM)
growth: 0.982

COMPOUND: O=C(NCCN1CCOCC1)c1ccc(Cl)cc1 [Moclobemide] (20 µM)
growth: 0.971

COMPOUND: CC[C@@]1(O)C(=O)OCc2c1cc1n(c2=O)Cc2cc3c(CN(C)C)c(O)ccc3nc2-1 [Topotecan] (20 µM)
growth: 0.991

COMPOUND: Cc1c(Nc2ncccc2C(=O)O)cccc1C(F)(F)F [Flunixin meglumine] (20 µM)
growth: 1.05

COMPOUND: COc1ccc(NS(=O)(=O)c2ccc(N)cc2)nn1 [Sulfamethoxypyridazine] (20 µM)
growth: 0.983

COMPOUND: CSc1ccc2c(c1)N(CCC1CCCCN1C)c1ccccc1S2 (stereo unspecified) [Thioridazine hydrochloride] (20 µM)
growth: 1.01

COMPOUND: CN(C)c1nc(N(C)C)nc(N(C)C)n1 [Altretamine] (20 µM)
growth: 0.993

COMPOUND: CCCc1c2oc(C(=O)O)cc(=O)c2cc2c(=O)cc(C(=O)O)n(CC)c12 [Nedocromil sodium] (20 µM)
growth: 1

COMPOUND: CN(C)CCCOc1nn(Cc2ccccc2)c2ccccc12 [Benzydamine hydrochloride] (20 µM)
growth: 0.978

COMPOUND: CCCCCCNC(=O)n1cc(F)c(=O)[nH]c1=O [Carmofur] (20 µM)
growth: 0.963

COMPOUND: c1ccc(CNc2ncnc3nc[nH]c23)cc1 [Aminopurine, 6-benzyl] (20 µM)
growth: 0.971

COMPOUND: CC1(C)S[C@@H]2[C@H](NC(=O)C(c3ccccc3)S(=O)(=O)O)C(=O)N2[C@H]1C(=O)O (stereo partly specified) [Sulbenicillin sodium salt] (20 µM)
growth: 0.634

COMPOUND: N=C(N)NCCN1CCCCCCC1 [Guanethidine sulfate] (20 µM)
growth: 1.1

COMPOUND: CC(C)NCC(O)COc1cccc2[nH]c3ccccc3c12 (stereo unspecified) [Carazolol] (20 µM)
growth: 0.956

COMPOUND: CC(=O)N(CC(O)CN(C(C)=O)c1c(I)c(C(=O)NCC(O)CO)c(I)c(C(=O)NCC(O)CO)c1I)c1c(I)c(C(=O)NCC(O)CO)c(I)c(C(=O)NCC(O)CO)c1I (stereo unspecified) [Iodixanol] (20 µM)
growth: 1.03

COMPOUND: COc1ccc(-c2cc(=S)ss2)cc1 [Anethole-trithione] (20 µM)
growth: 0.968

COMPOUND: CCOC(=O)[C@H](CCc1ccccc1)N[C@H]1CS[C@H](c2cccs2)CN(CC(=O)O)C1=O [Temocapril hydrochloride] (20 µM)
growth: 1.08

COMPOUND: CC(C)/N=c1\cc2n(-c3ccc(Cl)cc3)c3ccccc3nc-2cc1Nc1ccc(Cl)cc1 [Clofazimine] (20 µM)
growth: 1.04

COMPOUND: NCCc1cc[nH]n1 [Betazole hydrochloride] (20 µM)
growth: 1.03

COMPOUND: CCN(CC)CCCC(C)Nc1c2ccc(Cl)cc2nc2ccc(OC)cc12 (stereo unspecified) [Quinacrine dihydrochloride hydrate] (20 µM)
growth: 0.892

COMPOUND: O=C(O)CSCC(=O)NC1CCSC1=O (stereo unspecified) [Erdosteine] (20 µM)
growth: 1.03

COMPOUND: C1N2CN3CN1CN(C2)C3 [Methenamine] (20 µM)
growth: 1.02

COMPOUND: CC1c2cccc(O)c2C(O)=C2C(=O)C3(O)C(O)=C(C(N)=O)C(=O)C(N(C)C)C3C(O)C21 (stereo unspecified) [Doxycycline hydrochloride] (20 µM)
growth: 0.241

COMPOUND: Cc1ccnc2c1NC(=O)c1cccnc1N2C1CC1 [Nevirapine] (20 µM)
growth: 1.01

COMPOUND: COc1c(Cl)ccc(Cl)c1C(=O)O (20 µM)
growth: 1.03
